biological target: T1, recombinant human TfR (2474-TR, R&D Systems), biotinylated (human, UniProt P02786 89-760, biotinylated with EZ-Link NHS-PEG4-Biotinylation Kit); test: SPR (Biacore), ratio of the off rates on human TfR at the two pH values; the printed number equals kd at pH 5.5 divided by kd at pH 7.4
T1 construct: Bought protein; also called immobilized recombinant human TfR; biotinylated human TfR
T1 sequence (P02786 89-760 limits assumed): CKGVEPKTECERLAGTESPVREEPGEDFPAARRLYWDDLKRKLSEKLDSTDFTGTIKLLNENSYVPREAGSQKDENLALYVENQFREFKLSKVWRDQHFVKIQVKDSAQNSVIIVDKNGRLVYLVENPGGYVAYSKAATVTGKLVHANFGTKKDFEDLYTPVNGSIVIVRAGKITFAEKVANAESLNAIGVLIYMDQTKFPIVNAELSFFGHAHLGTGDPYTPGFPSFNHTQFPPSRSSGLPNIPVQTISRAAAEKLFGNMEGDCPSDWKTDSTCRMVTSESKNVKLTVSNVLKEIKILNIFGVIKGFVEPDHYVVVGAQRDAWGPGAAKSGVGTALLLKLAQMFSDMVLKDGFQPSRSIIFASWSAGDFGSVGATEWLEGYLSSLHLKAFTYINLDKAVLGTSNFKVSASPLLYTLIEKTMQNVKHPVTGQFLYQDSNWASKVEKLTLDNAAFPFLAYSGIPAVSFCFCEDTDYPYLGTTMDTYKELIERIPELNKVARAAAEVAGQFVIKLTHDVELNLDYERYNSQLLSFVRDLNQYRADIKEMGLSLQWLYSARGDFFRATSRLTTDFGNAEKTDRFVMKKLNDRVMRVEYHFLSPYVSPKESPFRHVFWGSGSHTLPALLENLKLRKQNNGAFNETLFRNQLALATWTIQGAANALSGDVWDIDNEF
Kindly supply the reported off-rate ratio kd pH5.5/kd pH7.4 values for the records listed here.
Just the number, please, no unit attached.

For the binder BBB00770 (VHH, also called histidine mutant of BBB00533) VHH: EVQLVESGGGLVQAGGSLRLSCAASGSIFSINAMGWYRQAPGKQRELVAVITSGGSTIYADSVKGRFTISRDNAENTVYLQMNSLRPEDTAVYYCNAHVGLKVPTIQELSLGHGSWGQGTLVTVSS , report off-rate ratio kd pH5.5/kd pH7.4. 3.37

For the binder BBB00772 (VHH, Histidine mutant) VHH: EVQLVESGGGLVQAGGSLRLSCAASGSIFSINAMGWYRQAPGKQRELVAVITSGGSTIYADSVKGRFTISRDNAENTVYLQMNSLRPEDTAVYYCNAHVGLKVPTIQELSLGFGHWGQGTLVTVSS , report off-rate ratio kd pH5.5/kd pH7.4. 1.92

For the binder BBB00737 (VHH, Histidine mutant) VHH: EVQLVESGGGLVQAGGSLRLSCAASHSIFSINAMGWYRQAPGKQRELVAVITSGGSTIYADSVKGRFTISRDNAENTVYLQMNSLRPEDTAVYYCNAHVGLKVPTIQELSLGFGSWGQGTLVTVSS , report off-rate ratio kd pH5.5/kd pH7.4. 2.32

For the binder BBB00756 (VHH, also called histidine mutant of BBB00533) VHH: EVQLVESGGGLVQAGGSLRLSCAASGSIFSINAMGWYRQAPGKQRELVAVITSGGSTIYADSVKGRFTISRDNAENTVYLQMNSLRPEDTAVYYCNAHHGLKVPTIQELSLGFGSWGQGTLVTVSS , report off-rate ratio kd pH5.5/kd pH7.4. 2.58
